# Test system: ORYSAT (Rice, Tebonnet)
# Run description: Preemergence herbicidal evaluation
# Type: in vivo, Oryza sativa, (L.) Tebonnet
# Condition: Rate 0.1250 kg/ha; preemergence; rated 4-5 weeks after treatment
# From the text: Results of herbicide evaluation are expressed on a rating scale (0-9). The scale is based upon a visual observation of plant stand, vigor, malformation, size, chlorosis and overall plant appearance as compared with a control. […]
Endpoint name: ORYSAT preemergence herbicidal rating
Returns: the value as a bare number; no unit string appended.

Tell us which ORYSAT preemergence herbicidal rating value is on record for COC(=O)COc1ccsc1-c1nsc2ccc(-n3c(=O)cc(C(F)(F)F)n(C)c3=O)cc12
0.0

Let me know recorded ORYSAT preemergence herbicidal rating for Cc1ccn(-c2nsc3ccc(-n4c(=O)cc(C(F)(F)F)n(C)c4=O)cc23)n1 , thanks.
5.0

Fill in ORYSAT preemergence herbicidal rating for record CN(C(=O)c1nsc2ccc(-n3c(=O)cc(C(F)(F)F)n(C)c3=O)cc12)c1ccc(Cl)cc1
5.0

Ref: patent US6706663B2
